test: Inhibition of human coronavirus HKU1 3C-like protease pretreated for 5 mins before substrate addition by fluorimetry
metric: IC50 (nM)
Express the result in nM but write the number alone.

Request: Identify measured IC50 associated with CC(C)C[C@H](NC(=O)[C@@H](NC(=O)[C@H](C)NC(=O)OCc1ccccc1)C(C)C)C(=O)N[C@H](C#N)CCC(N)=O
Response: 1300

----------
Each item that follows carries a reported pIC50.
target: Replicase polyprotein 1ab (Severe acute respiratory syndrome-related coronavirus, UniProt P0C6X7)
Remember, pIC50 is on a log scale: it is -log10 of the molar concentration.

CC(C)C[C@H](NC(=O)[C@@H](NC(=O)[C@H](C)NC(=O)[C@H](CO)NC(=O)[C@@H](NC(=O)OCc1ccccc1)[C@@H](C)O)C(C)C)C(=O)N[C@H](C#N)CCC(N)=O 4.41

Request: Identify measured pIC50 associated with Cc1cc(C(=O)N[C@@H](C)C(=O)N[C@H](C(=O)N[C@@H](CC(C)C)C(=O)N[C@H](C#N)CCC(N)=O)C(C)C)no1
Response: 4.31
